Cited source for all entries: patent US20160185837A1

Target: human glucagon receptor (GCGr) (Homo sapiens)
Construct: expressed in transfected cells; host or cells: HEK293s or CHO cells
Sequence (P47871 26-477): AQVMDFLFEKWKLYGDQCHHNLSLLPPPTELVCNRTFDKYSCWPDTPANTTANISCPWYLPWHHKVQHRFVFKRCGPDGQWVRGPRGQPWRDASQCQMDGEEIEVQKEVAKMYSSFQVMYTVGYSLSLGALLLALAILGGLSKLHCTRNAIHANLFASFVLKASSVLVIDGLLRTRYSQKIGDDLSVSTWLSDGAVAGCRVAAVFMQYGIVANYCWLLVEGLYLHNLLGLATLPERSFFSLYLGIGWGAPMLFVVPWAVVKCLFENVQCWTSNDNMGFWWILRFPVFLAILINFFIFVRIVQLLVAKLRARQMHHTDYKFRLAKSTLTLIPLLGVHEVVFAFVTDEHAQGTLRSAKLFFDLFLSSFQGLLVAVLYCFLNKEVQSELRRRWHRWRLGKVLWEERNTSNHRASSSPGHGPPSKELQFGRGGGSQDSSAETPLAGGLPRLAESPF
Test: BSA-cAMP assay, cells expressing human glucagon receptor
Format: cell-based
Settings: Batch 1, read-out: hGCGr cAMP activity EC50
pEC50: −log10 of the molar value.
# pEC50 listing for each entry below

Could you tell me which pEC50 is on file for IP412: Fc fusion, IgG1-TM, SEQ ID NO:387; agonist peptide YSEGTFTSDYSKLLEEEANRLFIEWLLAGG (YSEGTFTSDYSKLLEEEANRLFIEWLLAGGGGGGSGGGGSGGGGSGGGGSATHTCPPC) ?
< 6.36

***
// query pEC50 value for entry IP342 (YSEGTFTSDYSAAAEAAAAAAFAAWLAAAAGGGGGSGGGGSGGGGSGGGGSACPPC)
< 5.45

# pEC50 lookup, item IP353 (YSEGTFTSDYAAAAEAAAAAAFAAWLAKAAGGGGGSGGGGSGGGGSGGGGSACPPC)
< 5.49

I'd like to know its pEC50. The substance in question is IP385 (YSEGTFTSDYSIYLDRQAIDEFIAWLLKGGGGGGGSGGGGSGGGGSGGGGSACPPC)
< 5.81
